# tested-target: Casein kinase I isoform alpha (Homo sapiens);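 further: each value is a mean percent inhibition of the kinase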
# setup-conditions: at 1 µM
Could you label it label 1 if measured inhibition is 3% or higher, and label 0 otherwise?

// inclusive: inhibition at least 3%? input: CCn1c(-c2nonc2N)nc2ccc(F)cc21
label 1

Please answer likewise for CCS(=O)(=O)c1ccc(OC)c(Nc2nccc(N(C)c3ccc4c(C)n[nH]c4c3)n2)c1
label 0

Please answer likewise for CCCN1CCCC(c2ccc(Nc3nc(Nc4cc(F)ccc4C(N)=O)c4cc[nH]c4n3)c(OC)c2)C1 (stereo not drawn)
label 1

Please answer likewise for CC(C)c1ccc2c(c1)NC(=O)/C2=N/Nc1ccc(S(N)(=O)=O)cc1
label 0

Please answer likewise for COc1cccc(-n2nc(C)c3c(N/N=C(\C)c4ccncc4)ncnc32)c1
label 0

Please answer likewise for Cc1ccc(O)cc1Nc1ccnc2ccc(S(C)(=O)=O)cc12
label 1

Please answer likewise for Cc1nc(-c2ccccc2)n2nc(NCCCN3CCOCC3)ncc12
label 1

* * *

# tested-target: Mitogen-activated protein kinase kinase kinase kinase 2 (Homo sapiens);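 further: values given as mean percent inhibition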
# setup-conditions: at 0.1 µM
measurement-name: inhibition (%)
Entry rule: numbers only, all in %.

Fill in: inhibition of Cc1ccc(NC(=O)CC2CC2)cc1-c1ccc(C(=O)NCC2CC2)cc1 is ___
0.05

Please answer likewise for CCOc1nccc2c1nc(-c1nonc1N)n2CC
5.01

Please answer likewise for COc1cc2ncn(-c3cc(OCc4ccccc4S(C)(=O)=O)c(C#N)s3)c2cc1OC
8.65

Please answer likewise for N#Cc1cccc(Nc2nccc(-c3cnn4ncccc34)n2)c1
11

Please answer likewise for CN1CCN(C(=O)c2ccc(NC(=O)Nc3ccc(N(C)c4ccnc(Nc5ccc(CS(C)(=O)=O)cc5)n4)cc3)cc2)CC1
4.67

Please answer likewise for COc1ccc2ncnc(Nc3ccc(OCc4ccccc4)cc3)c2c1
0.8

Please answer likewise for Cc1ccc(C(=O)NC2CC2)cc1-c1ccc2[nH]ncc2c1
-1.74

Please answer likewise for CS(=O)(=O)Nc1cccc(-c2ccc3c(NC(=O)C4CC4)n[nH]c3c2)c1
1.94

Please answer likewise for c1ccc(Nc2ncc(-c3ccccc3)o2)cc1
1.03

Please answer likewise for O=C(Nc1ccc(Oc2ccc3[nH]c(NC(=O)c4ccco4)nc3c2)cc1)Nc1cc(C(F)(F)F)ccc1F
2.98

Please answer likewise for CN(C)c1cc2c(Nc3ccc4c(cnn4Cc4ccccc4)c3)ncnc2cn1
0.85

Please answer likewise for Cc1ccc2c(-c3ccnc(Nc4cccc(C(F)(F)F)c4)n3)c(-c3ccccc3)nn2n1
-0.05

Please answer likewise for CN(C)CCCn1c(-c2nonc2N)nc2cnccc21
2.05

Please answer likewise for COC(=O)c1ccc2c(c1)C(=Cc1cc(Br)c(O)c(Br)c1)C(=O)N2
1.53

Please answer likewise for OCc1ccc(-c2nc(-c3ccccn3)c(-c3ccc4c(c3)OCO4)[nH]2)cc1
1.15

Please answer likewise for CCn1c(-c2nonc2N)nc2ccc(F)cc21
1.16

Please answer likewise for Cc1cc(-c2ccccn2)cc(C)c1/C=C/c1cncc(-c2nn[nH]n2)c1
-1.16

Please answer likewise for NS(=O)(=O)c1ccc(N/N=C2\C(=O)Nc3ccc(Cl)cc32)cc1
0.49

Please answer likewise for COc1cccc(-n2ncc3c(N/N=C/c4ccc(S(C)(=O)=O)cc4)ncnc32)c1
0.47

Please answer likewise for COc1cc2ncnc(Nc3ccc4c(cnn4Cc4ccccc4)c3)c2cc1OC
1.57

Please answer likewise for CN(C)C(=O)O[C@@H]1CN[C@@H](C#Cc2cc3ncnc(Nc4ccc(OCc5cccc(F)c5)c(Cl)c4)c3s2)C1
0.47

Please answer likewise for COC(=O)c1cncc(/C=C/c2c(C)cc(O)cc2C)c1
0.34

Please answer likewise for CCS(=O)(=O)c1ccc(OC)c(Nc2ncc(-c3cccc(OC)c3)o2)c1
1.39

Please answer likewise for CC(C)c1ccc(Nc2nccc(-c3cnn4ncccc34)n2)cc1
1.97

Please answer likewise for CCn1c(-c2nonc2N)nc2c(C#CC(C)(C)O)nc(OCCNC)cc21
0.49

Please answer likewise for CN(C)C(=O)O[C@H]1CN[C@H](C#Cc2cc3ncnc(Nc4ccc(OCc5cccc(F)c5)c(Cl)c4)c3s2)C1
0.82

Please answer likewise for ON=C1CCc2cc(-c3nc(C4CCNCC4)[nH]c3-c3ccncc3)ccc21
1.74

Please answer likewise for COc1ccc(-c2nn3ncccc3c2-c2ccnc(Nc3cccc(C(F)(F)F)c3)n2)cc1
2.11

Please answer likewise for Nc1nccc(-c2c(-c3ccc(F)cc3)nn3cc(C(F)(F)F)ccc23)n1
2.23

Please answer likewise for [O-][S+]1CCN(Cc2ccc(-c3ccc4ncnc(Nc5ccc(OCc6ccccc6)c(Cl)c5)c4c3)o2)CC1
-0.35

Please answer likewise for CC(C)c1ccc2c(c1)NC(=O)/C2=N/Nc1ccc(S(N)(=O)=O)cc1
2.41

Please answer likewise for C[C@@H](Oc1cc(-n2cnc3ccc(OC[C@@H](O)CO)cc32)sc1C(N)=O)c1ccccc1Cl
3.67

Please answer likewise for Cc1cc(Cl)cc2c1NC(=O)C2=NNc1ccc(S(N)(=O)=O)cc1
1

Please answer likewise for O=C1Nc2ccc(-c3cccnc3)cc2C1=Cc1cc(Br)c(O)c(Br)c1
1.24

Please answer likewise for Nc1ccc(C#Cc2cncnc2Nc2ccc(OCc3cccc(F)c3)c(Cl)c2)cc1
0.2

Please answer likewise for NS(=O)(=O)c1ccc(NC=C2C(=O)Nc3ccc4ncsc4c32)cc1
27.2

Please answer likewise for COC(=O)Nc1nc2cc(Oc3ccc(NC(=O)Nc4cccc(Br)c4)cc3)ccc2[nH]1
3.41

These entries and their values trace back to ChEMBL document CHEMBL1961873.
